# Tested system: human Edg-1 (S1P1) (Homo sapiens, UniProt P21453)
# Construct: expressed in transfected cells; host or cells: HEK-293
# Sequence (P21453 whole entry): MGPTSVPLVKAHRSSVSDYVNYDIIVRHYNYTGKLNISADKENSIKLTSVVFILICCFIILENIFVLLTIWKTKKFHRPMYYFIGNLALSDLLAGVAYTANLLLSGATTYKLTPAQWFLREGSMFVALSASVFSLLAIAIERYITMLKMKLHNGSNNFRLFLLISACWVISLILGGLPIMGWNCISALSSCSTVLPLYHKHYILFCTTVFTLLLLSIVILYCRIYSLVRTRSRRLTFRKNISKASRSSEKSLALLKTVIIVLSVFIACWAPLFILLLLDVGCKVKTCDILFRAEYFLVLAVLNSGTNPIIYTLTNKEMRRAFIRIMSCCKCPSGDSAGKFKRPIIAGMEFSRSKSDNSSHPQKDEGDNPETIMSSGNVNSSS
# Procedure details: S1P1 binding assay: inhibition of [33P]-S1P binding to membrane fraction of HEK-293 cells transferred with the human Edg-1 (S1P1) gene
# Particulars: test compound 10 μM; inhibition of [33P]-S1P binding, membrane fraction
Measured endpoint: inhibition at 10 µM
The answer consists of two parts: a number and, after it, its unit.

Worked examples follow.
CCn1c(Oc2cccc(N3CCN(C)CC3)c2)nnc1[C@@H](C)NS(=O)(=O)c1ccc(F)cc1	107%
CCn1c(Oc2ccc3cc[nH]c3c2)nnc1[C@@H](C)NS(=O)(=O)c1ccc2cccc(Cl)c2c1	101%
CCn1c(Oc2cccc(N3CCN(C)CC3)c2)nnc1[C@@H](C)NS(=O)(=O)c1ccc(OC(F)(F)F)cc1	99.2%
CCn1c(Oc2cccc(N3CCN(C)CC3)c2)nnc1[C@@H](C)NS(=O)(=O)c1ccccc1Cl	67.2%

Need inhibition at 10 µM, item `CCn1c(Oc2cccc(N3CCN(C)CC3)c2)nnc1[C@@H](C)NS(=O)(=O)c1cnn(-c2ccccc2)c1C`
50.6%

Need inhibition at 10 µM, item `CCn1c(Oc2cccc(N3CCN(C)CC3)c2)nnc1C1(NS(=O)(=O)c2ccc(Cl)c(Cl)c2)CC1`
92.7%

Need inhibition at 10 µM, item `CCn1c(Oc2ccc3cc[nH]c3c2)nnc1[C@@H](C)NS(=O)(=O)c1cc(C(F)(F)F)ccc1Cl`
83.1%

This collection of values is drawn from patent US8022091B2.
